experiment: NCI Yeast Anticancer Drug Screen. Data for the rad18 strain (AID 177)
experimentalSetup: S. cerevisiae rad18 mutant growth inhibition; at 11.0 µM; stronger effect = higher value
Procedure: Growth inhibition of yeast strains with defined genetic alterations is measured as a screen for potential anti-cancer activity. Selected strains with alterations in DNA damage repair or cell cycle control were exposed to compounds and growth inhibition was measured relative to vehicle treated controls. The strain used in this assay is rad18
This is part of a sample that, as a whole, favours compounds with a hit. Of some 79,000 tested, about 15% had one in any assay.
readoutName: growth inhibition (%)
Kindly provide the numeric value in % only, without the unit symbol.

Solved entries:
Any idea what growth inhibition was measured for O=C(NNc1ccccc1)C(O)C(O)C(O)C(O)C(O)CO (configuration not stated) ?
39

Any idea what growth inhibition was measured for CC(=O)OCC(C)Cc1cc2c(cc1Br)OCO2 (configuration not stated) ?
-10

Any idea what growth inhibition was measured for Cc1ccc2c3ccc4c(c3n(C)c2c1)C(=O)C=CC4=O ?
15

Any idea what growth inhibition was measured for O=[N+]([O-])c1cc(Cl)cnc1Br ?
18

Any idea what growth inhibition was measured for COc1ccc(N=CN(C)C)c(C)c1 ?
-8

***
Any idea what growth inhibition was measured for CC(=O)OCC1OC2OC(=O)NC2C(OC(C)=O)C1OC(C)=O (configuration not stated) ?
0

Any idea what growth inhibition was measured for CC(C)(C)N=C(NO)c1ccccc1 ?
38

Values from PubChem BioAssay (NCI)
